Assay: melting temperature; fluorescence melt of hairpins on a sequencing array, two-state fit, raised by 9.35 °C to match UV melts
Settings: sodium 0.088 M
Output schema: class label derived from Tm. Mapping: low bracket = under 40 °C, middle bracket = from 40 °C up to 50 °C, high bracket = 50 °C and over

| biosequence | label |
| --- | --- |
| GCCGGTGGAAACACTGGC (((.(((....))).))) | high bracket |
| GACTCAGAAATGAGTC ((((((....)))))) | high bracket |
| GCTGCGCGAAAGCTGAGC (((..((....))..))) | middle bracket |
| GGTGCCGGAAACGGCGTC (..((((....))))..) | middle bracket |
| GTGCAGGGAAACTTGCAC (((((.(....).))))) | high bracket |
| GATCAAGGAAACCTGATC (((((.(....).))))) | low bracket |
| GCAGCGCGAAAGCCGTGC (((..((....))..))) | middle bracket |
| GGGGACGGAAACGTCCTC (.(((((....))))).) | high bracket |
| GTTCTGCGAAAGCATAAC (((.(((....))).))) | middle bracket |
| GATTCGGGAAACTGGATC (((.(.(....).).))) | low bracket |
| GAAGACGCGAAAGCGTTC (((..(((....)))))) | low bracket |
| GGATTAGCGAAAGCTTCC (((..(((....)))))) | low bracket |
| GTCGAACGAAAGTTTGAC (((.(((....))).))) | high bracket |
| GGGTAGGGAAACCTGCTC (.(.(((....))).).) | low bracket |
| GGCGCGGGAAACCGCACC ((.((((....)))).)) | high bracket |
| GGTTACGAAAGTACTACC ((((((....)))..))) | low bracket |
| GGGCGACGAAAGTCCCCC (((.(((....))).))) | high bracket |
| GCCACCCGAAAGGGAGGC (((.(((....))).))) | high bracket |
| GTAGTCGAAAGACTGTAC ((((((....)))..))) | low bracket |
| GATATTGGAAACGATATC (((((.(....).))))) | low bracket |
| GACTCTGGAAACAGAGTC (((((((....))))))) | high bracket |
| GGCCTCGAAAGAGCGCC ((((((....))).))) | high bracket |
| GAGACCGAAAGGTACTC ((((((....))).))) | middle bracket |
| GTCGATTCGAAAGAAGAC (((..(((....)))))) | low bracket |
| GACCCGGGAAACCGGACC (..((((....))))..) | low bracket |
| GGCTCCGAAAGGACGCC ((((((....))).))) | high bracket |
| GGTTCGGCGAAAGCCACC (((..(((....)))))) | low bracket |
| GCTTGTCGAAAGACTAGC (((.(((....))).))) | high bracket |

All figures here come from the array DNA melting data of Ke et al. (doi:10.1101/2024.01.08.574731).
